Cited source: PubChem BioAssay AID1159580

assay: chemical genetic growth profiling, strain panel (AID 1159580);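 also: tested at 20 µM; growth read once vehicle control cultures reached saturation at 30 °C; 1 = growth at the plate median or of vehicle wells; lower values mean less growth of the strain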; settings: S. cerevisiae deletion strains, growth OD, locus YOR290C, strain snf2
Screen size: about 5,500 compounds; about 2,000 (36%) were called active. Inconclusive results (about 18%) are left out. Rule as the data show it: active = normalized growth mostly below about 0.91 (no sharp cut-off); inconclusive = no clear call, values can overlap the other calls; inactive = mostly above about 0.92. The list shows a part of the results.
Classes used: y for active, n for inactive

> print(dat)
                                    compound  label.class
 1  CC1=C2CCC3C(CC[C@]4(C)C(=O)CCC34)[C@@]2(C)CCC1=O (stereo not given in full)            n
 2                 COc1cc(O)c(C(C)=O)c(OC)c1            n
 3  O=c1[nH]c2ccccc2n1C1CCN(CCCC(c2ccc(F)cc2)c2ccc(F)cc2)CC1            y
 4             COc1ccc2c(c1)[nH]c1c(C)nccc12            n
 5  Nc1ncnc2c1ncn2[C@@H]1O[C@H](CO)[C@@H](O)[C@@H]1O            n
 6                       FC(F)(F)COCC(F)(F)F            n
 7  CCCC(=O)Nc1ncnc2c1ncn2C1O[C@@H]2COP(=O)(O)O[C@H]2[C@H]1OC(=O)CCC (stereo not given in full)            n
 8                         COc1c(O)cc(O)cc1O            n
 9    CN1CCN(CCCN2c3ccccc3Sc3ccc(Cl)cc32)CC1            n
10  CC(=O)OC1CCC23C(=O)OC45CCC(C6=CC(=O)OC6)C4(C)CCC2C5CCC3(O)C1 (stereo not given)            n
11              COc1ccc2ccc(=O)oc2c1CC=C(C)C            y
12                       COc1cc(O)c(C)c(O)c1            n
13              O=C1c2ccccc2-c2cccc3cccc1c23            y
14                     COc1cc2ccc(=O)oc2cc1O            n
15             COc1ccc2c(=O)c(CC(=O)O)coc2c1            n
16  Fc1ccc(C(c2ccc(F)cc2)N2CCN(C/C=C/c3ccccc3)CC2)cc1            y
17                   Cc1nccc2c1[nH]c1ccccc12            n
18     CCCCC/C=C\C/C=C\C/C=C\C/C=C\CCCC(=O)O            n
19     CC(C)=CCC/C(C)=C/COc1ccc2ccc(=O)oc2c1            n
20              CC(C)=CCOc1cc2oc(=O)ccc2cc1O            n
21      O=C(O)CCCN1C(=O)c2cccc3cccc(c23)C1=O            n
22  O=c1n(CCCN2CCN(c3cccc(Cl)c3)CC2)nc2ccccn12            n
23  O=c1ccc2cc(O[C@@H]3O[C@H](CO)[C@@H](O)[C@H](O)[C@H]3O)c(O)cc2o1            n
24  O=C1OC(=O)C2C3CCC(O3)C12 (stereo not given)            n
25    CC(=O)c1ccc2c(c1)N(CCCN(C)C)c1ccccc1S2            n

----------
assay: chemical genetic growth profiling, strain panel (AID 1159580);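 also: tested at 20 µM; growth read once vehicle control cultures reached saturation at 30 °C; 1 = growth at the plate median or of vehicle wells; lower values mean less growth of the strain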; conditions: S. cerevisiae deletion strains, growth OD, locus YHR079C, strain IRE1
Screen size: about 5,500 compounds; about 2,000 (36%) were called active. Not shown: some 18% with an inconclusive outcome. Cut-off read from the data, not from the text of the source: active = normalized growth mostly below about 0.91 (no sharp cut-off); inconclusive = no clear call, values can overlap the other calls; inactive = mostly above about 0.92. Some of the results follow.
Classes used: active, inactive

compound	label class
O=c1[nH]c2ccccc2n1C1CCN(CCCC(c2ccc(F)cc2)c2ccc(F)cc2)CC1	inactive
CSC(SC)=C(C#N)C(=O)c1ccccc1Cl	active
COc1cc(O)c(C)c(O)c1	inactive
CC(=O)c1ccc2c(c1)N(CCCN(C)C)c1ccccc1S2	inactive
COc1cccc(C(=O)C(C#N)=C(SC)SC)c1	active
CC1CCc2c(sc3ncnc(Sc4ccccc4)c23)C1 (stereo not given)	inactive
CC(/C=C/c1ccccc1)=N/OC(=O)c1ccccc1Cl	inactive
CN(C)CC(=O)OC[C@@H](O)[C@@H](O)[C@H](O)[C@@H](O)C(=O)O	inactive
C[C@]12CCC3C(CC[C@H]4C[C@H](O)CC[C@]34C)C1CCC2=O (stereo not given in full)	active
Cc1c(N(C)CS(=O)(=O)O)c(=O)n(-c2ccccc2)n1C	inactive
Cc1c(NCN2C(=O)CCC2=O)cc2c(c1[N+](=O)[O-])C(C)(C)CC2(C)C	inactive
Cc1nn(Cc2cccc(C(=O)O/N=C(/N)c3ccc(Cl)cc3)c2)c(C)c1Br	inactive
Cc1c(C(=O)NCCNc2ccc(C(F)(F)F)cc2[N+](=O)[O-])cnn1-c1ccc(F)cc1	inactive
OCCN1CCN(CCCN2c3ccccc3Sc3ccc(Cl)cc32)CC1	inactive
S=C(NCc1ccco1)Nc1ccc(Oc2ccc(Cl)cc2)cc1	inactive
CC(C)=CCOc1cc2oc(=O)ccc2cc1O	inactive
O=C(/C=C/C(=O)Oc1ccccc1C(=O)O)Oc1ccccc1C(=O)O	inactive
O=C1OC(=O)C2C3CCC(O3)C12 (stereo not given)	inactive
COc1cc(O)c(C(C)=O)c(O)c1	inactive
Cc1nccc2c1[nH]c1ccccc12	inactive
O=c1n(CCCN2CCN(c3cccc(Cl)c3)CC2)nc2ccccn12	inactive
CCC(=O)O[C@H]1CCC2C3CCc4cc(O)ccc4C3CC[C@@]21C (stereo not given in full)	active
O=C(CCCN1CC=C(n2c(=O)[nH]c3ccccc32)CC1)c1ccc(F)cc1	inactive
CC(C)(C)c1cc(C(=O)/C(C#N)=N\Nc2ccc(Cl)cc2)no1	active
Cc1ccc(C(=O)Nc2ccc3ccccc3n2)cc1	inactive
COc1cc2ccc(=O)oc2cc1O	inactive
COc1cc(OC)c(C(C)=O)c(O)c1C	inactive
CCCc1nc(C(C)(C)O)c(C(=O)OCc2oc(=O)oc2C)n1Cc1ccc(-c2ccccc2-c2nn[nH]n2)cc1	inactive
CC(=O)OC1CCC23C(=O)OC45CCC(C6=CC(=O)OC6)C4(C)CCC2C5CCC3(O)C1 (stereo not given)	inactive
FC(F)(F)c1ccc(NC(=S)Nc2ccc(C(F)(F)F)cc2Cl)c(Cl)c1	inactive
CC(=O)OC1CCC2C3CCc4cc(O)ccc4C3CCC12C (stereo not given)	inactive
CC(=O)O[C@H]1CC2CCC3C(CC[C@@]4(C)C3C[C@H]([N+]3(C)CCCCC3)[C@@H]4OC(C)=O)[C@@]2(C)C[C@@H]1[N+]1(C)CCCCC1 (stereo not given in full)	inactive
O=c1[nH]cnc2nc[nH]c12	inactive
Cc1cccc(N(C)C(=S)Oc2ccc3ccccc3c2)c1	inactive
Nc1ccccc1C(=O)N/N=C\c1cc(Cl)cc(Cl)c1O	active
CC(=O)N[C@@H]1[C@@H](O)[C@H](O)[C@@H](CO)O[C@H]1O	inactive
N#Cc1ccc2c(c1)N(CCCN1CCC(O)CC1)c1ccccc1S2	inactive
N#CC(C#N)=NNc1cc(C(F)(F)F)ccc1OCC(F)(F)F	inactive
CCOc1nc2cccc(C(=O)OC(C)OC(=O)OC3CCCCC3)c2n1Cc1ccc(-c2ccccc2-c2nn[nH]n2)cc1 (stereo not given)	inactive
C[C@]12CCC3C(CC[C@H]4CC(=O)CC[C@]34C)C1CCC2=O (stereo not given in full)	inactive
COc1ccc2c(c1)[nH]c1c(C)nccc12	inactive
O=c1ccc2ccc(O)c(O)c2o1	inactive
CN(NC(=S)Nc1cc(Cl)ccc1Cl)c1ccc(C(F)(F)F)cc1[N+](=O)[O-]	inactive
N/C(=N/OC(=O)c1ccccc1Cl)c1ccc2nonc2c1	inactive
CN1CCN(CCCN2c3ccccc3Sc3ccc(Cl)cc32)CC1	inactive

----------
assay: chemical genetic growth profiling, strain panel (AID 1159580);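 also: tested at 20 µM; growth read once vehicle control cultures reached saturation at 30 °C; 1 = growth at the plate median or of vehicle wells; lower values mean less growth of the strain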; conditions: S. cerevisiae deletion strains, growth OD, locus YOR144C, strain elg1
About 2,000 (36%) of roughly 5,500 compounds were called active. Not shown: some 18% with an inconclusive outcome. Cut-off read from the data, not from the text of the source: active = normalized growth mostly below about 0.91 (no sharp cut-off); inconclusive = no clear call, values can overlap the other calls; inactive = mostly above about 0.92. The list shows a part of the results.
Classes used: true (1) for active, false (0) for inactive

> print(dat)
                                    compound  label.class
 1                 COc1c2occc2cc2ccc(=O)oc12    false (0)
 2            O=C1c2ccccc2C(=O)c2c1ccc(O)c2O     true (1)
 3                     COc1cc2ccc(=O)oc2cc1O    false (0)
 4  Cc1cc(O)c2c(c1O)C(=O)c1c(O)cc(C)c(O)c1C2=O    false (0)
 5              CC(C)=CCOc1cc2oc(=O)ccc2cc1O    false (0)
 6                  COc1cc2ccc(=O)oc2c(O)c1O    false (0)
 7          CC(C)=CCOc1c2occc2cc2ccc(=O)oc12     true (1)
 8  Cn1nnnc1SCC1=C(C(=O)O)N2C(=O)C(NC(=O)C(OC=O)c3ccccc3)C2SC1 (configuration not stated)    false (0)
 9     CCCCC/C=C\C/C=C\C/C=C\C/C=C\CCCC(=O)O    false (0)
10              Cn1c(=O)[nH]c(=O)c2[nH]cnc21    false (0)
11  CCCc1nc(C(C)(C)O)c(C(=O)OCc2oc(=O)oc2C)n1Cc1ccc(-c2ccccc2-c2nn[nH]n2)cc1    false (0)
12              COc1ccc2ccc(=O)oc2c1CC=C(C)C     true (1)
